test: Cytotoxicity against C57BL/6J mouse primary hepatocytes assessed as cell viability at 200 uM incubated for 24 hrs by MTT assay relative to control; format: toxicity, cell-based, Hepatocyte; details: read-out: Activity
Measurement kind: viability at 24 h, 200 µM (%)
Number only, in %; omit the unit.

{"columns": ["Query smiles", "Display unit", "Meas value"],
 "data": [
  ["COC(=O)[C@@]12CCCC3([C@H](O)OC1)[C@H]2CC[C@H]1[C@@H](C)c2ccoc2C[C@@H]13", "%", 7.2]
]}

// query Looking for the measured viability at 24 h, 200 µM of `COC(=O)[C@@]12CCCC3([C@H](OCCCCCO)OC1)[C@H]2CC[C@H]1[C@@H](C)c2ccoc2C[C@@H]13` , can you help?
// result 18.7

// query Looking for the measured viability at 24 h, 200 µM of `COC(=O)[C@@]12CCCC3([C@H](OCCOCCOCCO)OC1)[C@H]2CC[C@H]1[C@@H](C)c2ccoc2C[C@@H]13` , can you help?
// result 8.1

// query Looking for the measured viability at 24 h, 200 µM of `CNC(=O)[C@@]12CCCC3([C@H](OCCO)OC1)[C@H]2CC[C@H]1[C@@H](C)c2ccoc2C[C@@H]13` , can you help?
// result 76.3

====

test: Inhibition of gluconeogenesis in C57BL/6J mouse primary hepatocytes assessed as inhibition of glucagon-stimulated glucose production at 2.5 uM preincubated for 1.5 hrs followed by lactate and pyruvate addition and later stimulated with glucagon for 4 hrs; type: functional; conditions: Hepatocyte, time 5.5 hrs
# label = Met if inhibition at 2.5 µM >= 20% else Not met

// query Is inhibition at 2.5 µM for `COC(=O)[C@@]12CCCC3([C@H](OCCOCCOCCO)OC1)[C@H]2CC[C@H]1[C@@H](C)c2ccoc2C[C@@H]13` at or above 20%?
// result Met

// query Is inhibition at 2.5 µM for `CC(=O)OC[C@@]12CCCC3([C@H](OCCO)OC1)[C@H]2CC[C@H]1[C@@H](C)c2ccoc2C[C@@H]13` at or above 20%?
// result Not met

// query Is inhibition at 2.5 µM for `CCCNC(=O)[C@@]12CCCC3([C@H](OCCO)OC1)[C@H]2CC[C@H]1[C@@H](C)c2ccoc2C[C@@H]13` at or above 20%?
// result Met

// query Is inhibition at 2.5 µM for `COC(=O)[C@@]12CCCC3([C@H](O)OC1)[C@H]2CC[C@H]1[C@@H](C)c2ccoc2C[C@@H]13` at or above 20%?
// result Met

// query Is inhibition at 2.5 µM for `COC(=O)[C@@]12CCCC3([C@H](OCCOCCO)OC1)[C@H]2CC[C@H]1[C@@H](C)c2ccoc2C[C@@H]13` at or above 20%?
// result Met

// query Is inhibition at 2.5 µM for `C[C@H]1c2ccoc2C[C@H]2[C@H]1CC[C@@H]1C23CCC[C@]1(CO)CO[C@H]3OCCO` at or above 20%?
// result Met

// query Is inhibition at 2.5 µM for `COC(=O)[C@]12CCCC3([C@H]1CC[C@H]1[C@@H](C)c4ccoc4C[C@@H]13)[C@H](SCCO)OC2` at or above 20%?
// result Not met

====

test: Inhibition of gluconeogenesis in C57BL/6J mouse primary hepatocytes assessed as inhibition of glucagon-stimulated glucose production at 10 uM preincubated for 1.5 hrs followed by lactate and pyruvate addition and later stimulated with glucagon for 4 hrs; format: functional; settings: Hepatocyte, time 5.5 hrs
# label = Y if inhibition at 10 µM >= 70% else N

{"columns": ["Query smiles", "Answer label"],
 "data": [
  ["CNC(=O)[C@@]12CCCC3([C@H](OCCO)OC1)[C@H]2CC[C@H]1[C@@H](C)c2ccoc2C[C@@H]13", "N"],
  ["COC(=O)[C@@]12CCCC3([C@H](OCCOCCOCCOCCO)OC1)[C@H]2CC[C@H]1[C@@H](C)c2ccoc2C[C@@H]13", "Y"],
  ["COC(=O)[C@@]12CCCC3([C@H](OCCCCCO)OC1)[C@H]2CC[C@H]1[C@@H](C)c2ccoc2C[C@@H]13", "Y"],
  ["CC(=O)OCCO[C@@H]1OC[C@@]2(CO)CCCC13[C@H]2CC[C@H]1[C@@H](C)c2ccoc2C[C@@H]13", "Y"],
  ["COC(=O)[C@@]12CCCC3([C@H](O)OC1)[C@H]2CC[C@H]1[C@@H](C)[C@@H]2CCO[C@@H]2C[C@@H]13", "N"]
]}

// query Is inhibition at 10 µM for `COC(=O)[C@@]12CCC[C@]3(COC1)[C@H]1Cc4occc4[C@H](C)[C@@H]1CC[C@@H]23` at or above 70%?
// result N

// query Is inhibition at 10 µM for `COC(=O)[C@@]12CCCC3([C@H](OCCCCCCO)OC1)[C@H]2CC[C@H]1[C@@H](C)c2ccoc2C[C@@H]13` at or above 70%?
// result Y

// query Is inhibition at 10 µM for `COC(=O)[C@]12CCCC3([C@H]1CC[C@H]1[C@@H](C)c4ccoc4C[C@@H]13)[C@H](SCCO)OC2` at or above 70%?
// result N

// query Is inhibition at 10 µM for `COC(=O)[C@@]12CCCC3([C@H](OCCOCCO)OC1)[C@H]2CC[C@H]1[C@@H](C)c2ccoc2C[C@@H]13` at or above 70%?
// result Y

// query Is inhibition at 10 µM for `COC(=O)[C@@]12CCCC3([C@H](OCCO)OC1)[C@H]2CC[C@H]1[C@@H](C)c2ccoc2C[C@@H]13` at or above 70%?
// result Y

// query Is inhibition at 10 µM for `COC(=O)[C@]12CCC[C@]3(COC1)[C@H]1C[C@H]4OCC[C@H]4[C@H](C)[C@@H]1CC[C@@H]23` at or above 70%?
// result N

====

assay: Cytotoxicity against C57BL/6J mouse primary hepatocytes assessed as cell viability at 20 uM incubated for 24 hrs by MTT assay relative to control; format: toxicity, cell-based, Hepatocyte; details: read-out: Activity
Measurement kind: viability at 24 h, 20 µM (%)
Number only, in %; omit the unit.

Example entries begin here.
{"columns": ["Query smiles", "Meas value"],
 "data": [
  ["CCCNC(=O)[C@@]12CCCC3([C@H](OCCO)OC1)[C@H]2CC[C@H]1[C@@H](C)c2ccoc2C[C@@H]13", 77.5],
  ["CC(=O)OC[C@@]12CCCC3([C@H](OCCO)OC1)[C@H]2CC[C@H]1[C@@H](C)c2ccoc2C[C@@H]13", 78.1],
  ["C[C@H]1c2ccoc2C[C@H]2[C@H]1CC[C@@H]1C23CCC[C@]1(CO)CO[C@H]3OCCO", 69.6],
  ["COC(=O)[C@@]12CCCC3([C@H](OCCOCCOCCO)OC1)[C@H]2CC[C@H]1[C@@H](C)c2ccoc2C[C@@H]13", 23.4],
  ["COC(=O)[C@@]12CCCC3([C@H](OCCCO)OC1)[C@H]2CC[C@H]1[C@@H](C)c2ccoc2C[C@@H]13", 20.6],
  ["COC(=O)[C@]12CCCC3([C@H]1CC[C@H]1[C@@H](C)c4ccoc4C[C@@H]13)[C@H](SCCO)OC2", 97.9],
  ["COC(=O)[C@@]12CCCC3([C@H](O)OC1)[C@H]2CC[C@H]1[C@@H](C)c2ccoc2C[C@@H]13", 84.6],
  ["COC(=O)[C@@]12CCCC3([C@H](OCCCCCCO)OC1)[C@H]2CC[C@H]1[C@@H](C)c2ccoc2C[C@@H]13", 81.5],
  ["CNC(=O)[C@@]12CCCC3([C@H](OCCO)OC1)[C@H]2CC[C@H]1[C@@H](C)c2ccoc2C[C@@H]13", 84.7],
  ["CCNC(=O)[C@@]12CCCC3([C@H](OCCO)OC1)[C@H]2CC[C@H]1[C@@H](C)c2ccoc2C[C@@H]13", 84.1]
]}

Below: the item to evaluate.
// query Looking for the measured viability at 24 h, 20 µM of `COC(=O)[C@@]12CCCC3([C@H](OCCO)OC1)[C@H]2CC[C@H]1[C@@H](C)c2ccoc2C[C@@H]13` , can you help?
// result 86.1

====

inhibition at 2.5 µM reference
experiment: Inhibition of gluconeogenesis in C57BL/6J mouse primary hepatocytes assessed as inhibition of glucagon-stimulated glucose production at 2.5 uM preincubated for 1.5 hrs followed by lactate and pyruvate addition and later stimulated with glucagon for 4 hrs; type: functional; details: Hepatocyte, time 5.5 hrs
Number only, in %; omit the unit.

{"columns": ["Query smiles", "Display unit", "inhibition at 2.5 µM"],
 "data": [
  ["COC(=O)[C@@]12CCCC3([C@H](OCCO)OC1)[C@H]2CC[C@H]1[C@@H](C)c2ccoc2C[C@@H]13", "%", 53.4],
  ["COC(=O)[C@@]12CCCC3([C@H](OCCOCCOCCOCCO)OC1)[C@H]2CC[C@H]1[C@@H](C)c2ccoc2C[C@@H]13", "%", 63.1],
  ["CNC(=O)[C@@]12CCCC3([C@H](OCCO)OC1)[C@H]2CC[C@H]1[C@@H](C)c2ccoc2C[C@@H]13", "%", 9.6],
  ["CC(=O)OCCO[C@@H]1OC[C@@]2(CO)CCCC13[C@H]2CC[C@H]1[C@@H](C)c2ccoc2C[C@@H]13", "%", 25.1]
]}

// query Looking for the measured inhibition at 2.5 µM of `COC(=O)[C@@]12CCCC3([C@H](OCCCO)OC1)[C@H]2CC[C@H]1[C@@H](C)c2ccoc2C[C@@H]13` , can you help?
// result 32.7

// query Looking for the measured inhibition at 2.5 µM of `COC(=O)[C@@]12CCCC3([C@H](OCCCCCCO)OC1)[C@H]2CC[C@H]1[C@@H](C)c2ccoc2C[C@@H]13` , can you help?
// result 33.5

// query Looking for the measured inhibition at 2.5 µM of `COC(=O)[C@@]12CCCC3([C@H](OCCCCCO)OC1)[C@H]2CC[C@H]1[C@@H](C)c2ccoc2C[C@@H]13` , can you help?
// result 32.2

// query Looking for the measured inhibition at 2.5 µM of `CCNC(=O)[C@@]12CCCC3([C@H](OCCO)OC1)[C@H]2CC[C@H]1[C@@H](C)c2ccoc2C[C@@H]13` , can you help?
// result 21.8

// query Looking for the measured inhibition at 2.5 µM of `COC(=O)[C@@]12CCCC3([C@H](OCCCCO)OC1)[C@H]2CC[C@H]1[C@@H](C)c2ccoc2C[C@@H]13` , can you help?
// result 47
